Values compiled from the supplement of paper PMC11451515.

Tested on: SEM cells
test_name: cell viability relative to DMSO control; higher = less cytotoxic
condition_details: RPMI 5 mM glucose + 10% dialyzed FBS; 48 h; 15.4 µM
Sorting guide: entries reporting cell viability beneath 80% go in the y pile, the rest go in the n pile.

Item COc1cccc2c1C(=O)c1c(O)c3c(c(O)c1C2=O)C[C@@](O)(C(=O)CO)C[C@@H]3O[C@H]1C[C@H](N)[C@H](O)[C@H](C)O1 : cell viability beneath 80%, strictly?
y

Item COC(=O)C\1=C(C)\N\C(=C(/C1C2=CC=CC3=NON=C23)C(=O)OC(C)C)C (stereo unspecified) : cell viability beneath 80%, strictly?
n

Item CC#CCn1c(N2CCC[C@@H](N)C2)nc2c1c(=O)n(Cc1nc(C)c3ccccc3n1)c(=O)n2C : cell viability beneath 80%, strictly?
n

Item O=C(c1ccccc1)c1ccc2n1CCC2C(=O)O (stereo unspecified) : cell viability beneath 80%, strictly?
y

Item CCOC(=O)\C1=C\[C@]2(CC)CCCN3CCC4=C([C@H]23)[N]1C5=C4C=CC=C5 : cell viability beneath 80%, strictly?
n

Item COc1c(C)c2c(c(O)c1C/C=C(\C)CCC(=O)O)C(=O)OC2 : cell viability beneath 80%, strictly?
y

Item COC1=C(OCCCN2CCOCC2)C=CC\3=C1/N=C(/NC(=O)C4=CN=C(N)N=C4)N5CC/N=C35 : cell viability beneath 80%, strictly?
y

Item NC[C@H]1O[C@H](O[C@@H]2[C@H](O)[C@@H](O[C@H]3O[C@H](CO)[C@@H](O)[C@H](N)[C@H]3O)[C@H](N)C[C@@H]2N)[C@H](O)[C@@H](O)[C@@H]1O : cell viability beneath 80%, strictly?
n

Item Cc1ccc([S+](=O)([O-])OCC(=O)Nc2ccc(C(=O)O)c(O)c2)cc1 : cell viability beneath 80%, strictly?
n

Item Oc1nc(-c2ccc(C(F)(F)F)cc2)nc2c1CSCC2 : cell viability beneath 80%, strictly?
n

Item Cc1csc(-c2nnc(Nc3ccc(Oc4ncccc4-c4ccnc(N)n4)cc3)c3ccccc23)c1 : cell viability beneath 80%, strictly?
y

Item COc1cc2c(cc1OC)CN(CCc1ccc(NC(=O)c3cc(OC)c(OC)cc3NC(=O)c3cnc4ccccc4c3)cc1)CC2 : cell viability beneath 80%, strictly?
y

Item COc1ccc(C(=O)CC2(O)C(=O)Nc3c(Cl)ccc(Cl)c32)cc1 (stereo unspecified) : cell viability beneath 80%, strictly?
y

Item C=CC(=O)Nc1cc2c(Nc3ccc(F)c(Cl)c3)ncnc2cc1OCCCN1CCOCC1 : cell viability beneath 80%, strictly?
y

Item COc1cc[nH]c2ncc(C(=O)C(=O)N3CCN(C(=O)c4ccccc4)C[C@H]3C)c1-2 : cell viability beneath 80%, strictly?
n

Item CCCCOc1c(C(=O)c2c(F)cc(C)cc2F)cnc2[nH]ncc12 : cell viability beneath 80%, strictly?
y

Item CN1\C=N/C2=CC=C(NC3=CC(=CC=C3C)NC(=O)C4=CC(=CC=C4)C(C)(C)C#N)C=C2C1=O : cell viability beneath 80%, strictly?
y

Item Nc1c2c(nc3ccccc13)CCCC2 : cell viability beneath 80%, strictly?
n

Item CC(C)(O)CC(=O)NCCn1ccc2ncnc(Nc3ccc(Oc4cccc(C(F)(F)F)c4)c(Cl)c3)c21 : cell viability beneath 80%, strictly?
y

Item N[C@@H]1CONC1=O : cell viability beneath 80%, strictly?
n

Item COc1ccc(C(=O)c2c(C)n(CCN3CCOCC3)c3cc(I)ccc23)cc1 : cell viability beneath 80%, strictly?
n

Item Cc1cc2c(C(N)=O)cccc2n1-c1nc2c(c(NCc3ccccc3)n1)COCC2 : cell viability beneath 80%, strictly?
y

Item CN1CCCN(CC1)C2=CC=C3C(=O)\C(=C/4SC5=C(C=CC=C5)N4C3=N2)C(=O)NCC6=CN=C(C)C=N6 : cell viability beneath 80%, strictly?
y

Item C[C@@H]1CCO[C@H]2CN\3/C=C(/C(=O)NCC4=C(F)C=C(F)C=C4)C(=O)\C(=C3C(=O)N12)O : cell viability beneath 80%, strictly?
n

Item CCOC(=O)C(C)OC1=CC=CC2=C1\C=C/N(CC(=O)NC3=CC=C4OCCOC4=C3)C2=O (stereo unspecified) : cell viability beneath 80%, strictly?
n

Item C[C@]12CC[C@H]3[C@@H](CCC4=CC(=O)CC[C@@H]43)[C@@H]1CC[C@@H]2OC(=O)CCc1ccccc1 : cell viability beneath 80%, strictly?
n
